System: K-RasG12V
PROTOCOL_DETAILS: K-Ras nanoclustering-FRET
Type: cell-based
TEST_CONDITIONS: read-out: IC50 K-Ras nanoclustering-FRET (mean ± SEM); HEK cells, 24 h, n = 3
ENDPOINT: IC50

Record c1ccc(Cn2c(-c3ccc(OC[C@H](C4CCNCC4)n4c(-c5ccccc5)nc5ccccc54)cc3)nc3ccccc32)cc1 [Deltarasin, reference compound] . Reported IC50: 700 nM

###

TARGET_OR_TEST_SYSTEM: PDE6D/avi-K-RasFMe (Homo sapiens, UniProt O43924)
Sequence (O43924 whole entry): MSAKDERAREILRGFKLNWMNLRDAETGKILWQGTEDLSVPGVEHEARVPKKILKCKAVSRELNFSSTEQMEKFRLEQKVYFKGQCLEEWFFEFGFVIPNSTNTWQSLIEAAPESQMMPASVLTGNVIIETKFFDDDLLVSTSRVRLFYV
PROTOCOL_DETAILS: SPR inhibition of PDE6D binding to captured avi-K-RasFMe
In this section, each of the molecules is paired with its reported Kd.
Please state the figure in µM; there is no need to write the unit.

Answered cases to consult:
MOLECULE | TARGET_OR_TEST_SYSTEM | Kd / µM
CCOC(=O)C(C)(COP(=O)(OC)OCC1CCC(CNC(=O)c2cc3ccccc3oc2=O)CC1)C(=O)CSC(C)=O (stereo not drawn) | PDE6D/avi-K-RasFMe (Homo sapiens, UniProt O43924) | 4.97
O=C(NCCCCCCO)c1cc2ccccc2oc1=O | PDE6D/avi-K-RasFMe (Homo sapiens, UniProt O43924) | 14.1

Record CCOC(=O)C(C)(COP(=O)(OC)OCCCCCCNC(=O)c1ccc(C(=O)OC)c(N)c1)C(=O)CSC(C)=O (stereo not drawn) . Reported Kd: 7.62
